Assay Procedure: MRP1 drug-resistance reversers in H69AR cells – cell-based, doxorubicin co-treatment, pilot screen (AID 601)
Experimental Context: H69AR cells + 2 uM doxorubicin, CellTiter-Glo, 72 h; measured here: viability with 2 uM doxorubicin; at 10 µM; stronger effect = lower value
Threshold 90%. viability below it: true (1). viability at it or above: false (0).

{"Structure Smiles String": "Clc1ccc(Nc2ncnc3c2cnn3-c2ccccc2)cc1", "Class Name": "true (1)"}
{"Structure Smiles String": "CN(C1CCCCC1)S(=O)(=O)c1ccc(S(=O)(=O)N2CCN(CCC#N)CC2)cc1", "Class Name": "true (1)"}
{"Structure Smiles String": "Cn1c(CSc2nc3ccccc3s2)nnc1SCC(=O)NCCN1CCOCC1", "Class Name": "false (0)"}
{"Structure Smiles String": "Cn1cc(Cl)c(C(=O)N(Cc2ccccc2)c2ccccn2)n1", "Class Name": "false (0)"}

====

Measured viability values are reported for all entries that follow.
Assay Procedure: viability of PTEN-null HCT116 cells – cell-based, HCT116 clonal line, CellTiter-Glo, pilot screen (AID 824);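 also: 0% = 20 µM Hyamine control and 100% = vehicle cell control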
Experimental Context: HCT116 PTEN-deleted viability, 60 h, at 10 µM, stronger effect = lower value
Results filed as inconclusive are left out. The source made the active and inactive calls.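 Rule for the calls: active = viability at or below 27.92% in each of two runs, the all-compound median minus 4 SD; inconclusive = no clear call, values can overlap the other calls; inactive = the rest.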

{"Compound": "CC(=O)c1sc(NC(=O)C2COc3ccccc3O2)nc1C (configuration not stated)", "viability": "99% (inactive)"}
{"Compound": "CCOC(=O)CN1Cc2cccc(C(=O)O)c2C1=O", "viability": "96.3% (inactive)"}
{"Compound": "O=C(Nc1ccncc1)c1cc2ccccc2o1", "viability": "95.9% (inactive)"}
{"Compound": "O=P(O)(CCc1ccccc1)CN1CCCCC1", "viability": "98.8% (inactive)"}
{"Compound": "CC(C)(C)c1ccc(S(=O)(=O)N2CCN(CCC#N)CC2)cc1", "viability": "96.3% (inactive)"}
{"Compound": "O=C(C(Cc1ccccc1)n1cccc1)N1CCCCCC1 (configuration not stated)", "viability": "88% (inactive)"}
{"Compound": "Cc1ccnc2c(N3C(=O)C4C5C=CC(C5)C4(C)C3=O)cccc12 (configuration not stated)", "viability": "95.5% (inactive)"}
{"Compound": "Cc1ccnc(SCCn2c(N3CCN(Cc4ccccc4)CC3)nc3c2c(=O)[nH]c(=O)n3C)n1", "viability": "99.3% (inactive)"}
{"Compound": "Cc1ccc(NC(=O)CNS(=O)(=O)c2cccs2)cc1F", "viability": "97.7% (inactive)"}
{"Compound": "CCn1c2ccccc2c2nnc(SCC(=O)c3ccccc3)nc21", "viability": "90.7% (inactive)"}
{"Compound": "COc1ccc(OCCSc2nc3ccccc3n2CC(=O)O)cc1", "viability": "94.8% (inactive)"}
{"Compound": "O=C(CCC(=O)OCC(=O)c1ccccc1)NC1CCCCC1", "viability": "95.6% (inactive)"}
{"Compound": "COC(=O)CN1C(=O)CC(C)(C)S(=O)c2ccccc21 (configuration not stated)", "viability": "99.7% (inactive)"}
{"Compound": "CCCNS(=O)(=O)c1cccc2cccnc12", "viability": "96.5% (inactive)"}
{"Compound": "CCOC(=O)CSC(CC)C(=O)Nc1nnc(C(C)C)s1 (configuration not stated)", "viability": "94.7% (inactive)"}
{"Compound": "N#Cc1nc(COc2ccccc2Cl)oc1N1CCCCCC1", "viability": "87.5% (inactive)"}
{"Compound": "Cn1cc(Cl)c(C(=O)N(Cc2ccccc2)c2ccccn2)n1", "viability": "94.7% (inactive)"}
{"Compound": "CCOC(=O)C1CCCN(C(=O)c2cn(C)c(=O)c3cc(OC)c(OC)cc23)C1 (configuration not stated)", "viability": "90.7% (inactive)"}
{"Compound": "O=C(O)c1ccc2c(c1)C(=O)N(c1ccc(Cl)cn1)C2=O", "viability": "96.2% (inactive)"}
{"Compound": "O=C(O)CC(NC(=O)OCc1ccccc1)c1ccccc1 (configuration not stated)", "viability": "96.5% (inactive)"}
{"Compound": "Cc1ccc2c(c1)c(C)c(C)n2CC(O)CN1CCCCC1C (configuration not stated)", "viability": "79.6% (inactive)"}
{"Compound": "CCc1nnc(NC(=O)C(C)Sc2ccccc2)s1 (configuration not stated)", "viability": "98.1% (inactive)"}

====

The reader will find reported viability values listed item by item below.
Assay Procedure: viability of PTEN-null HCT116 cells – cell-based, HCT116 clonal line, CellTiter-Glo, pilot screen (AID 824);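 also: 0% = 20 µM Hyamine control and 100% = vehicle cell control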
Experimental Context: HCT116 PTEN-deleted viability, 60 h, at 10 µM, stronger effect = lower value
Records with an inconclusive call do not appear.
Quantity Kind: viability (%)

{"Compound": "Cn1c(=O)oc2cc(S(=O)(=O)N3CCCC(C(=O)N4CCc5ccccc5C4)C3)ccc21 (stereo not drawn)", "Quantity Kind": "viability", "Observed Result": 84.9}
{"Compound": "CCCSCCCNC(=O)Cn1cc2c(n1)CCC(C)C2 (stereo not drawn)", "Quantity Kind": "viability", "Observed Result": 95.7}
{"Compound": "CN(C)S(=O)(=O)c1ccc(C(=O)OCCCN=C2NS(=O)(=O)c3ccccc32)cc1", "Quantity Kind": "viability", "Observed Result": 102}

====

Assay Procedure: HUVEC growth inhibition – cell-based, human, primary screen (AID 575);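 also: 100% = median of untreated cell wells with 0.1% DMSO on each plate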
Experimental Context: HUVEC proliferation, CellTiter-Glo luminescence, 72 h; at 10 µM; stronger effect = lower value

{"Compound": "Cc1[nH]nc2c1C(C1CC=CCC1)C(C#N)=C(N)O2 (stereo not given)", "viability, %": 63.5}
{"Compound": "CCc1cccc(NC(=O)Cn2cc3c(n2)CCCC3)c1", "viability, %": 89.8}
{"Compound": "O=c1oc2c3c4c(cc2s1)CCCN4CCC3", "viability, %": 101}
{"Compound": "Cc1cc(C(N)=O)c2cc(Br)ccc2n1", "viability, %": 109}
{"Compound": "CCOc1ccc(N2CC(C(=O)Nc3ccccc3OC)CC2=O)cc1 (stereo not given)", "viability, %": 110}
{"Compound": "CCOC(=O)CCc1c(C)nc2cc(-c3ccc(F)cc3)[nH]n2c1=O", "viability, %": 97.6}
{"Compound": "CCNc1ccc(C(=O)OCC)cc1NC(=O)c1cc(S(=O)(=O)N2CCOCC2)ccc1C", "viability, %": 83.3}
{"Compound": "CC1CCN(C(=O)CSCC(=O)Nc2nc(-c3cccs3)cs2)CC1", "viability, %": 67}
{"Compound": "Cn1c(C(=O)NCCCN2CCN(c3ccc(F)cc3)CC2)cc2c(=O)n(C)c3ccccc3c21", "viability, %": 65.7}
{"Compound": "COc1ccc(C(=O)NCc2nc3ccccc3[nH]2)cc1OC", "viability, %": 101}
{"Compound": "CC1(C)CC(=O)C=C(Nc2ccc(OCC(F)(F)C(F)F)cc2)C1", "viability, %": 92.8}
{"Compound": "Nc1[nH]nc2nc(N3CCCC3)nc(-c3ccccc3)c12", "viability, %": 92}
{"Compound": "O=c1c(-c2ccccc2)coc2c(CN3CCOCC3)c(O)ccc12", "viability, %": 96.4}
{"Compound": "Cc1c(C#N)c2ncnc(-c3ccccc3)c2n1-c1ccccc1", "viability, %": 85.5}
{"Compound": "O=C(CSc1nnc(Cn2c(=O)sc3ccccc32)n1-c1ccccc1)Nc1nccs1", "viability, %": 66.9}
{"Compound": "Cc1ccc(C(=O)CSc2n[nH]c(-c3ccco3)n2)cc1C", "viability, %": 99.2}
{"Compound": "O=C(NCc1cccs1)C(Cc1ccccc1)NS(=O)(=O)c1cccs1 (stereo not given)", "viability, %": 95.7}
{"Compound": "C=C(Cl)COc1ccc2c(C)cc(=O)oc2c1", "viability, %": 102}
{"Compound": "O=C(NCc1ccc2c(c1)OCO2)C1CCC(CNc2c(N3CCCCC3)c(=O)c2=O)CC1 (stereo not given)", "viability, %": 94}
{"Compound": "COC(=O)COc1cccc(NC(=O)COc2ccccc2)c1", "viability, %": 90.7}
{"Compound": "O=C(CSc1nc(-c2ccco2)cc(C(F)(F)F)n1)NCCCn1ccnc1", "viability, %": 64.9}
{"Compound": "COc1ccc(C)cc1NC(=O)C1CCN(S(=O)(=O)c2cccc3cccnc23)CC1", "viability, %": 102}
{"Compound": "CCN(CC)C(=O)C1CCCc2c1[nH]c1ccc(Cl)cc21 (stereo not given)", "viability, %": 67.1}
{"Compound": "COc1ccc(NC(=O)C2CCCCN2S(=O)(=O)c2ccc(F)cc2)cc1 (stereo not given)", "viability, %": 91.4}
{"Compound": "COC(=O)c1cn(NC(=O)C2CCCO2)c(=O)c2ccccc12 (stereo not given)", "viability, %": 93.7}
{"Compound": "COc1cc(C(=O)N2c3ccccc3CC2C)cc(OC)c1OC (stereo not given)", "viability, %": 88.8}
{"Compound": "CCOc1ccc2nc(N3CCC(C(=O)N4CCN(C5CCCCC5)CC4)CC3)sc2c1", "viability, %": 98.6}
{"Compound": "COc1ccc(CNC(=O)c2cnc3n(c2=O)CCS3)cc1", "viability, %": 90.6}
{"Compound": "COc1ccccc1OCCNC(=O)c1cccs1", "viability, %": 115}
{"Compound": "COc1ccc(CNc2oc(-c3ccccc3)nc2C#N)cc1", "viability, %": 69.7}
{"Compound": "COCCCNC(=O)c1ccc(CS(=O)(=O)c2ccc(OC)cc2)o1", "viability, %": 95.4}
{"Compound": "CCOc1ccc(NC(=O)C(C)Sc2nnc(C)n2C)cc1 (stereo not given)", "viability, %": 97.6}
{"Compound": "CN1CCN(Cc2nc3c(c(=O)n(C)c(=O)n3C)n2Cc2ccccc2Cl)CC1", "viability, %": 86.5}
{"Compound": "CCOCCCNC(=O)c1ccc2c(c1)N(Cc1ccccc1)C(=O)CS2=O (stereo not given)", "viability, %": 103}
{"Compound": "CCc1ccc(N(CC(=O)NC2CCCC2)S(=O)(=O)c2c(C)noc2C)cc1", "viability, %": 101}
